- experimental_system: human PLK1 (Homo sapiens)
- Construct: FLAG (DYKDDDDK) (N); made in house; host or cells: Sf21 insect cells, recombinant baculovirus (pFASTBAC1, Bac-to-Bac)
- Sequence (P53350 with tags, fused parts or gaps): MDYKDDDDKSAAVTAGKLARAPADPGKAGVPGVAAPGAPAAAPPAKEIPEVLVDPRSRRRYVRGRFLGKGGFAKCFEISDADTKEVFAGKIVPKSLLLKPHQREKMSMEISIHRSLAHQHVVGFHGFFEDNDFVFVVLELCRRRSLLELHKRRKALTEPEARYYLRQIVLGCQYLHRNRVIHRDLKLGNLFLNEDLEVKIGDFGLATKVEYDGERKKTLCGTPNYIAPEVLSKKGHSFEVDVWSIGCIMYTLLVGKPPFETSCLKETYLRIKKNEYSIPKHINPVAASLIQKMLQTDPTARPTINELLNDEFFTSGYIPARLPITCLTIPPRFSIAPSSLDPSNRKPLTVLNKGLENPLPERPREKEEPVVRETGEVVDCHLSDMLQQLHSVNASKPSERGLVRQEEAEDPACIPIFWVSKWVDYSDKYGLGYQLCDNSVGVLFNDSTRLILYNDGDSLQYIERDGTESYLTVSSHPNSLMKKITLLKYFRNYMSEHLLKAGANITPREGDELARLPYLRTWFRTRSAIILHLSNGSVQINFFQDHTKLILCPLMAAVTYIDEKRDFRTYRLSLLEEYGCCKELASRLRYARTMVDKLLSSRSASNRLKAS
- procedure_details: PLK1 in vitro enzymatic activity assay (phosphorylation of alpha casein by recombinant PLK1)
- Format: biochemical
- condition_notes: recombinant FLAG-tagged PLK1, alpha casein substrate, 500 nmol/L ATP, 40 min at room temperature; read-out: pIC50 (PLK1) (converted)
value_type: IC50

{"compound": "C=C[C@@]1(F)CN(C2CCCC2)c2nc(Nc3cc(F)c(C(=O)NC4CCN(C)CC4)cc3OC)ncc2N(C)C1=O", "measured": "≤ 2 nM"}
{"compound": "CN(C)CCOc1ccc(Nc2ncc3c(n2)N(C2CCCC2)CC(F)(F)C(=O)N3C)cc1", "measured": "> 2 nM"}
{"compound": "COc1cc(C(=O)NC2CNC2)ccc1Nc1ncc2c(n1)N(C1CCCCC1)CC(F)(F)C(=O)N2C", "measured": "≤ 2 nM"}
{"compound": "CCN1CC(NC(=O)c2ccc(Nc3ncc4c(n3)N(C3CCCCC3)CC(F)(F)C(=O)N4C)c(OC)c2)C1", "measured": "> 2 nM"}
{"compound": "COc1cc(C(=O)NN2CCNCC2)ccc1Nc1ncc2c(n1)N(C1CCCCC1)CC(F)(F)C(=O)N2C", "measured": "≤ 2 nM"}
{"compound": "COc1cc(C(=O)NC2CN(C3CCCC3)C2)c(F)cc1Nc1ncc2c(n1)N(C1CCCC1)CC(F)(F)C(=O)N2C", "measured": "≤ 2 nM"}
{"compound": "COc1cc(C(=O)NC2CC3CCC(C2)N3C)ccc1Nc1ncc2c(n1)N(C1CCCCC1)CC(F)(F)C(=O)N2C (stereo not shown)", "measured": "≤ 2 nM"}
{"compound": "COc1cc(C(=O)NC2CCN(CC(N)=O)CC2)ccc1Nc1ncc2c(n1)N(C1CCCC1)CC(F)(F)C(=O)N2C", "measured": "> 2 nM"}
{"compound": "CN1CCC(NC(=O)c2ccc(Nc3ncc4c(n3)N(C3CCCC3)CC(F)(F)C(=O)N4C)c(F)c2)CC1", "measured": "≤ 2 nM"}
{"compound": "CN1C(=O)C(F)(F)CN(C2CCCC2)c2nc(Nc3ccc4[nH]ccc4c3)ncc21", "measured": "> 2 nM"}
{"compound": "COc1cc(C(=O)NC2CCN(C)CC2)ccc1Nc1ncc2c(n1)N(C1CCCCC1)CC(F)(F)C(=O)N2C", "measured": "≤ 2 nM"}
{"compound": "COc1cc(C(=O)NN2CCCCC2)ccc1Nc1ncc2c(n1)N(C1CCCCC1)CC(F)(F)C(=O)N2C", "measured": "≤ 2 nM"}
{"compound": "COc1cc(C(=O)NN2CCCC2)ccc1Nc1ncc2c(n1)N(C1CCCCC1)CC(F)(F)C(=O)N2C", "measured": "≤ 2 nM"}
{"compound": "COc1cc(C(=O)NC2CCNCC2)ccc1Nc1ncc2c(n1)N(C1CCCC1)CC(F)(F)C(=O)N2C", "measured": "≤ 2 nM"}
{"compound": "CN1C(=O)C(F)(F)CN(C2CCCC2)c2nc(Nc3ccc4c(c3)NC(=O)CO4)ncc21", "measured": "> 2 nM"}
{"compound": "COc1cc(C(=O)NC2CCN(CC(=O)N(C)C)CC2)ccc1Nc1ncc2c(n1)N(C1CCCC1)CC(F)(F)C(=O)N2C", "measured": "> 2 nM"}
{"compound": "COc1cc(C(=O)N[C@@H]2CCCN(C)C2)ccc1Nc1ncc2c(n1)N(C1CCCCC1)CC(F)(F)C(=O)N2C", "measured": "≤ 2 nM"}
{"compound": "COc1cc(C(=O)NC2CCN(C(=O)CN(C)C)CC2)c(F)cc1Nc1ncc2c(n1)N(C1CCCC1)CC(F)(F)C(=O)N2C", "measured": "> 2 nM"}
{"compound": "COc1cc(C(=O)N[C@H]2CC[C@H](O)CC2)ccc1Nc1ncc2c(n1)N(C1CCCCC1)CC(F)(F)C(=O)N2C", "measured": "≤ 2 nM"}
{"compound": "COc1cc(C(=O)NC2CN(C(C)C)C2)ccc1Nc1ncc2c(n1)N(C1CCCC1)CC(F)(F)C(=O)N2C", "measured": "≤ 2 nM"}
{"compound": "COc1cc(C(=O)N[C@H]2CCCNC2)ccc1Nc1ncc2c(n1)N(C1CCCCC1)CC(F)(F)C(=O)N2C", "measured": "> 2 nM"}
{"compound": "COc1cc(C(=O)N[C@H]2CCNC2)ccc1Nc1ncc2c(n1)N(C1CCCCC1)CC(F)(F)C(=O)N2C", "measured": "≤ 2 nM"}
{"compound": "COc1cc(C(=O)N2CCN(C)CC2)ccc1Nc1ncc2c(n1)N(C1CCCCC1)CC(F)(F)C(=O)N2C", "measured": "> 2 nM"}
{"compound": "COc1cc(C(=O)N[C@H]2CC[C@H](OP(=O)(O)O)CC2)ccc1Nc1ncc2c(n1)N(C1CCCCC1)CC(F)(F)C(=O)N2C", "measured": "≤ 2 nM"}
{"compound": "COc1cc(C(=O)N[C@@H]2CCN(C)C2)ccc1Nc1ncc2c(n1)N(C1CCCCC1)CC(F)(F)C(=O)N2C", "measured": "> 2 nM"}
{"compound": "COc1cc(C(=O)NC2CCN(C)CC2)ccc1Nc1ncc2c(n1)N(C1CC[C@@H](C)C1)CC(F)(F)C(=O)N2C (stereo partly shown)", "measured": "≤ 2 nM"}
{"compound": "COc1cc(C(=O)N[C@@H]2CCCC[C@H]2O)ccc1Nc1ncc2c(n1)N(C1CCCCC1)CC(F)(F)C(=O)N2C (racemic)", "measured": "≤ 2 nM"}
{"compound": "COc1cc(C(=O)NC2CCN(CCO)CC2)ccc1Nc1ncc2c(n1)N(C1CCCCC1)CC(F)(F)C(=O)N2C", "measured": "≤ 2 nM"}
